test system: ADCK3; construct: gene CABC1; settings: Compound Concentration (nM):1000;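 note: KINOMEscan scanMAX binding as percent activity remaining versus control; lower means stronger binding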
Listed compounds paired with reported Percent Control

{"compound": "NS(=O)(=O)c1ccc(N/N=C2\\C(=O)Nc3ccc(C(=O)NCCc4c[nH]cn4)cc32)cc1 [GW300660X]", "Percent Control [%]": 100}
{"compound": "CCn1c(-c2nonc2N)nc2c(C#CC(C)(C)O)nc(OCCNC)cc21.Cl [GSK949675]", "Percent Control [%]": 100}
{"compound": "COc1ccccc1-c1cc(/C=C2\\C(=O)Nc3ncc(Br)cc32)cc(Br)c1O [GW442130X]", "Percent Control [%]": 100}
{"compound": "Cl.O=C(Nc1ccc(Oc2ccc3[nH]c(NC(=O)c4ccccc4)nc3c2)cc1)Nc1cc(C(F)(F)F)ccc1F [GW709042A]", "Percent Control [%]": 100}
{"compound": "COC(=O)Nc1nc2ccc(Oc3ccc(NC(=O)Nc4cc(C(F)(F)F)ccc4F)cc3)cc2s1.Cl [GW693917A]", "Percent Control [%]": 100}
{"compound": "CC1=C(C(=O)Nc2ccc3[nH]ncc3c2)C(c2ccc(Cl)c(Cl)c2)CC(=O)N1 (centres unmarked) [GSK299115A]", "Percent Control [%]": 99}
{"compound": "O=C(Nc1n[nH]c2nc(-c3ccc(O)cc3)c(Br)cc12)C1CC1 [SB-725317]", "Percent Control [%]": 100}
{"compound": "CCS(=O)(=O)c1ccc(OC)c(Nc2ncc(-c3cccc(F)c3)o2)c1 [GW621970X]", "Percent Control [%]": 100}
{"compound": "COc1cc2ncnc(Nc3ccc4c(cnn4Cc4ccccc4)c3)c2cc1OC.Cl [GW282449A]", "Percent Control [%]": 100}
{"compound": "COc1cccc(-c2c[nH]c3c(N/N=C/c4ccncc4)ncnc23)c1 [GW814408X]", "Percent Control [%]": 100}
{"compound": "COc1cccc(-n2ncc3c(N/N=C/c4ccncc4)ncnc32)c1 [GW784752X]", "Percent Control [%]": 100}
{"compound": "NS(=O)(=O)c1ccc(N/N=C2\\C(=O)Nc3ccc(Cl)cc32)cc1 [GW280670X]", "Percent Control [%]": 100}
{"compound": "COc1ccc(COc2ccc(Cc3cnc(N)nc3N)cc2OC)cc1 [GW632580X]", "Percent Control [%]": 92}
{"compound": "NS(=O)(=O)c1ccc(N/N=C2\\C(=O)Nc3ccc(C(=O)NCc4ccncc4)cc32)cc1 [GW300657X]", "Percent Control [%]": 87}
{"compound": "C[C@@H](Oc1cc(-n2cnc3ccc(OC4CCN(C)CC4)cc32)sc1C(N)=O)c1ccccc1Cl [GSK579289A]", "Percent Control [%]": 97}
{"compound": "Cl.O=S1CCN(Cc2ccc(-c3ccc4ncnc(Nc5ccc(OCc6ccccc6)c(F)c5)c4c3)o2)CC1 [GW576924A]", "Percent Control [%]": 100}
{"compound": "COc1cc(C)c(N(C)C(=O)CN(C)C)cc1Nc1nc(Nc2cccc(F)c2C(N)=O)c2cc[nH]c2n1 [GSK2219385]", "Percent Control [%]": 80}
